Test system: A549 cells
Assay: Cytotoxic activity (MTS assay), A549
Assay type: cell-based, human
Details: Homo sapiens, A549; 10 µM; SD in brackets; read-out: A549 cell inhibitory activity (Table S5)

# molecule, inhibition at 10 µM (%)
rows = [
    ("O=C(O)c1ccc(O)cc1 [Compound 28, 4-hydroxybenzoic acid]", 15.5),
    ("CC(C)=CCc1c(O)cc(O)c2c(=O)c(O)c(-c3ccc(O)cc3)oc12", 13.4),
    ("C=C(C)[C@H](CC=C(C)C)Cc1c(O)cc(OC)c(C(=O)/C=C/c2ccc(O)cc2O)c1O", 2),
]

###

System: HepG2 cells
Assay: Cytotoxic activity (MTS assay), HepG2
Format: cell-based, human
Conditions: Homo sapiens, HepG2, 10 µM; SD in brackets; read-out: HepG2 cell inhibitory activity (Table S4)
Parameter threshold = 9%. Response is Yes when inhibition at 10 µM meets or exceeds it, else No.

# compound, label
data = [
    ("COc1cc(O)c2c(=O)c(-c3ccc(O)c(OC)c3)coc2c1 [Compound 17, 7,3′-di-O-methyl]", "No"),
    ("COc1cc(O)c(CC=C(C)C)c(O)c1C(=O)/C=C/c1ccc(O)cc1 [Compound 7, xanthohumol]", "Yes"),
    ("O=c1c(-c2ccc(O)cc2)coc2cc(O)cc(O)c12 [Compound 18, genistein]", "No"),
    ("C=C(C)[C@H](CCC(C)(C)O)Cc1c(O)cc(OC)c2c1O[C@H](c1ccc(O)cc1O)CC2=O [Compound 12, kurarinol]", "No"),
    ("COc1ccc(-c2coc3cc(O)ccc3c2=O)cc1O [Compound 19, calycosin]", "No"),
    ("C=C(C)[C@H](CCC(C)(C)O)Cc1c(O)cc(OC)c2c1O[C@H](c1ccc(O)cc1O)[C@@H](O)C2=O [Compound 3, kushenol H]", "No"),
    ("O=c1ccc2ccc(O)c(O)c2o1 [Compound 25, 7,8-dihydroxycoumarin]", "No"),
    ("COc1ccc(-c2coc3cc(O)cc(O)c3c2=O)cc1 [Compound 21, biochanin A]", "No"),
    ("O=C(O)c1ccc(O)cc1O [Compound 27, b-resorcylic acid]", "No"),
    ("O=C1C[C@@H](c2ccc(O)cc2)Oc2cc(O)cc(O)c21 [Compound 11, naringenin]", "No"),
    ("O=c1cc(-c2ccc(O)c(O)c2)oc2cc(O)cc(O)c12 [Compound 23, luteolin]", "No"),
    ("COc1cc(O)c(CC=C(C)C)c2oc(-c3ccc(O)cc3)c(O)c(=O)c12 [Compound 14, sophoflavescenol]", "Yes"),
]
